Tested on: RPMI-8226
Test: NCI tumour cell line growth inhibition, 48 h
Activity calls are given as the source filed them. Rule as the data show it: active = GI50 up to about 1.1 µM and inactive = higher.
# valid calls are active, inactive; nothing else

Example results:
CNC1C(=O)C(C)C(O)(C(CC(C)C(O)/C=C/C=C/CNC(=O)C(C)(C)C(O)\C(C)=C/C=C\C=C\Cc2cnc(C)o2)OC)C12C(=O)OC2C.CNC1C(=O)C(C)C(O)(C(CC(C)C(O)/C=C/C=C/CNC(=O)C(C)(C)C(O)\C(C)=C/C=C\C=C\Cc2cnc(C)o2)OC)C12C(=O)OC2COC (stereo not drawn); active
O=C1C2C(C(=O)N1c1ccccc1)C1(c3ccccc3)OC2(c2ccccc2)c2ccccc21 (stereo not drawn); inactive
[N-]=[N+]=NC1C2CC3CC(C2)CC1C3 (stereo not drawn); inactive
Nc1ccn(C2OC(C(O)CO)C(O)C2O)c(=O)n1 (stereo not drawn); inactive
Nc1nc(SCc2ccccc2)c2ncn(Cc3ccccc3)c2n1; inactive
CC(=O)Oc1cc2c(cc1OC(C)=O)[C@H]1CC[C@]3(C)[C@@H](OC(C)=O)CC[C@H]3[C@@H]1CC2; inactive
O=C(O)/C=C/c1ccc(Oc2ccccc2C(=O)O)o1; inactive

What was the test verdict on CC1(C)/C(=N\NC(N)=O)C2CCC1C2 (stereo not drawn) ?
inactive

====

Test system: HOP-62
Experiment: NCI tumour cell line growth inhibition, 48 h
Calls of active or inactive are those of the source. No stated cut-off is given here; in the data, active = GI50 up to about 1.1 µM and inactive = higher.
Field: GI50. Provide a value for each of the compounds that follow.

These recorded examples may help you get a feel for the data.
CCOC(=O)C1Oc2ccc([N+](=O)[O-])cc2C1(C)O (stereo unspecified); > 100 µM (inactive)
[N-]=[N+]=NC(c1cn(C2CC(O)C(CO)O2)c(=O)[nH]c1=O)C(I)I (stereo unspecified); > 100 µM (inactive)

Please look at the items below and tell me GI50 for each one, in order.
1. COC(=O)/C=C\n1nc(Br)c(=O)[nH]c1=O
2. CN(CCc1ccccn1)c1ccc2c(c1)Cc1ccccc1-2
3. CCn1cc(C(=O)O)c(=O)c2cc3c(cc21)S(=O)(=O)CC3
4. N#CC1C(=O)SC2c3ccccc3C(=O)c3ccccc3C12 (stereo unspecified)
5. CC1CC=CC(O)C1 (stereo unspecified)
6. CC(C)Cc1cnc(CC(C)C)c(=O)[nH]1
7. COc1cc([C@@H]2c3cc4c(cc3[C@@H](NC(=O)c3cccc([N+](=O)[O-])c3)C3COC(=O)[C@@H]32)OCO4)cc(OC)c1O (stereo partly specified)

["> 100 µM (inactive)", "16.1 µM (inactive)", "> 100 µM (inactive)", "> 10 µM (inactive)", "> 100 µM (inactive)", "> 100 µM (inactive)", "0.0398 µM (active)"]

Please look at the items below and tell me GI50 for each one, in order.
1. O=CC(O)C(O)C(O)COc1cc(CO)cc2c1C(=O)c1ccccc1C2=O (stereo unspecified)
2. COc1cc(C(C)=O)cc(C(=O)N(C(C)C)C(C)C)c1[Si](C)(C)C

1. > 100 µM (inactive)
2. > 100 µM (inactive)

====

System: SF-539
Experiment: NCI tumour cell line growth inhibition, 48 h
Activity calls are given as the source filed them. Cut-off read from the data, not from the text of the source: active = GI50 up to about 1.1 µM and inactive = higher.
Field: GI50. Provide a value for each of the molecules that follow.

These recorded examples may help you get a feel for the data.
Cc1cc(C(=O)CSC(=S)SC(C)(C)C)ccc1Cl; 18.7 µM (inactive)
CN(C)CCCN1c2ccccc2Sc2ccc3ccccc3c21; 16.1 µM (inactive)
Clc1ccc(NCNC2Nc3ccccc3N2)cc1Cl; 48.5 µM (inactive)
O=S(O)c1cc(Cl)cc(Cl)c1OCc1ccccc1; > 100 µM (inactive)
CN(C)CCNC(=O)c1ccc(Cl)c2ccc(-c3ccccc3)nc12; 3.66 µM (inactive)

Please look at the items below and tell me GI50 for each one, in order.
1. O=C(Nc1nnc(-c2ccc(Cl)cc2)o1)C(SC(=S)N1CCCCC1)c1ccccc1 (stereo not given)
2. CC(=O)c1cccc2c1CC1(C2)Cc2ccc3c(c2C1=O)CCC3 (stereo not given)
3. N#Cc1c(NC(=O)CCC(=O)O)ccc2ccccc12
4. NC(CCOCCP(=O)(O)CCOCCC(N)C(=O)O)C(=O)O (stereo not given)

1. 30 µM (inactive)
2. 82.2 µM (inactive)
3. > 100 µM (inactive)
4. > 100 µM (inactive)
